Would you mind telling me the reported pEC50 of each entry?
System: HCV replicon cells
Test: HCV replicon FRET / luciferase assay (96-well plates)
Assay type: cell-based
Details: Hepatitis C virus, Table 1b; HCV replicon; read-out: EC50
pEC50: −log10 of the molar value.

Exam item: Could you tell me which pEC50 is on file for CNC(=O)c1c(-c2ccc(F)cc2)oc2ccc(-c3cc(C(=O)NC4(c5ccccc5)CC4)ccc3OCCN)cc12 ?
Marked response: > 6.60

Exam item: Could you tell me which pEC50 is on file for CNC(=O)c1c(-c2ccc(F)cc2)oc2ccc(-c3cc(C(=O)NC4(c5ccccn5)CC4)ccc3Cl)cc12 [drawing 384] ?
Marked response: > 6.60

Exam item: Could you tell me which pEC50 is on file for CNC(=O)c1c(-c2ccc(F)cc2)oc2ccc(-c3cc(C(=O)NC4(c5ccccn5)CC4)ccc3OCCN(C)C)cc12 ?
Marked response: > 6.60

Exam item: Could you tell me which pEC50 is on file for CNC(=O)c1c(-c2ccc(F)cc2)oc2ccc(-c3cc(C(=O)NCC(C)C)ccc3OC3CCC(N)C3)cc12 (stereo not shown) ?
Marked response: > 6.60

Exam item: Could you tell me which pEC50 is on file for CNC(=O)c1c(-c2ccc(F)cc2)oc2ccc(-c3cc(C(=O)NC4(c5ccccc5)CC4)ccc3O)cc12 ?
Marked response: > 6.60

Exam item: Could you tell me which pEC50 is on file for CNC(=O)c1c(-c2ccc(F)cc2)oc2ccc(-c3ccc(-c4ccnc(N)c4)c(C(=O)NCC(C)C)c3)cc12 ?
Marked response: > 6.60

Exam item: Could you tell me which pEC50 is on file for CNC(=O)c1c(-c2ccc(F)cc2)oc2ccc(-c3cc(C(=O)OC)c(OC)cc3OCC(N)=O)cc12 ?
Marked response: 5.00 to 6.00

Exam item: Could you tell me which pEC50 is on file for CNC(=O)c1c(-c2ccc(F)cc2)oc2ccc(-c3cc(C(=O)NCC(C)C)ccc3OCCc3ccc(O)cc3)cc12 ?
Marked response: 6.00 to 6.60

Exam item: Could you tell me which pEC50 is on file for CNC(=O)c1c(-c2ccc(F)cc2)oc2cc(N(CCO)S(C)(=O)=O)c(-c3cccc(C(=O)NC4(c5ccccc5)CC4)c3)cc12 ?
Marked response: > 6.60

Exam item: Could you tell me which pEC50 is on file for CCCn1cc(-c2ccc(-c3ccc4oc(-c5ccc(F)cc5)c(C(=O)NC)c4c3)cc2C(=O)NCC(C)C)cn1 ?
Marked response: > 6.60

Exam item: Could you tell me which pEC50 is on file for CNC(=O)c1c(-c2ccc(F)cc2)oc2cc(N(CCO)S(C)(=O)=O)c(-c3cccc(C(=O)NC4(c5ccccn5)CC4)c3)cc12 ?
Marked response: > 6.60

Exam item: Could you tell me which pEC50 is on file for CNC(=O)c1c(-c2ccc(F)cc2)oc2ccc(-c3cc(C(=O)NCC(C)C)ccc3OCCc3c[nH]c4ccccc34)cc12 ?
Marked response: 5.00 to 6.00

Exam item: Could you tell me which pEC50 is on file for CNC(=O)c1c(-c2ccc(F)cc2)oc2ccc(-c3ccc(-c4ccccc4C(N)=O)c(C(=O)NC4(c5ccccn5)CC4)c3)cc12 ?
Marked response: > 6.60

Exam item: Could you tell me which pEC50 is on file for CCCC#CCOc1ccc(C(=O)NCC(C)C)cc1-c1ccc2oc(-c3ccc(F)cc3)c(C(=O)NC)c2c1 ?
Marked response: 5.00 to 6.00

Exam item: Could you tell me which pEC50 is on file for CNC(=O)c1c(-c2ccc(F)cc2)oc2ccc(-c3cc(C(=O)NCC(C)C)ccc3OCCN3CCCC3)cc12 ?
Marked response: > 6.60

Exam item: Could you tell me which pEC50 is on file for CNC(=O)c1c(-c2ccc(F)cc2)oc2ccc(-c3cc(N)ccc3C)cc12 ?
Marked response: 5.00 to 6.00

Exam item: Could you tell me which pEC50 is on file for CNC(=O)c1c(-c2ccc(F)cc2)oc2ccc(-c3cc(C(=O)NC4(c5ccccn5)CC4)c(O)cc3Cl)cc12 ?
Marked response: 6.00 to 6.60

Exam item: Could you tell me which pEC50 is on file for CNC(=O)c1c(-c2ccc(F)cc2)oc2ccc(-c3cc(OCc4ccoc4)cc(C(=O)NCC(C)C)c3)cc12 ?
Marked response: 5.00 to 6.00

Exam item: Could you tell me which pEC50 is on file for CNC(=O)c1ccc(-c2ccc(-c3ccc4oc(-c5ccc(F)cc5)c(C(=O)NC)c4c3)cc2C(=O)NCC(C)C)cn1 ?
Marked response: < 5.00

Exam item: Could you tell me which pEC50 is on file for CNC(=O)c1c(-c2ccc(F)cc2)oc2ccc(-c3ccc(-c4cncc5ccccc45)c(C(=O)NCC(C)C)c3)cc12 ?
Marked response: > 6.60

Exam item: Could you tell me which pEC50 is on file for CNC(=O)c1c(-c2ccc(F)cc2)oc2ccc(-c3cc(C(=O)NC4(c5ncccn5)CC4)c(OC)cc3C)cc12 ?
Marked response: > 6.60

Exam item: Could you tell me which pEC50 is on file for CNC(=O)c1c(-c2ccc(F)cc2)oc2ccc(-c3cc(C(=O)NC4(c5nc(C)no5)CC4)c(OC)cc3C)cc12 [drawing 500] ?
Marked response: > 6.60

Exam item: Could you tell me which pEC50 is on file for CNC(=O)c1c(-c2ccc(F)cc2)oc2ccc(-c3ccc(-c4cccc(/C=C/C(=O)O)c4)c(C(=O)NCC(C)C)c3)cc12 ?
Marked response: 6.00 to 6.60

Exam item: Could you tell me which pEC50 is on file for CNC(=O)c1c(-c2ccc(F)cc2)oc2ccc(-c3ccc(-c4ccccc4OC)c(C(=O)NCC(C)C)c3)cc12 ?
Marked response: > 6.60

Exam item: Could you tell me which pEC50 is on file for CNC(=O)c1c(-c2ccc(F)cc2)oc2ccc(-c3cccc(C(=O)NC(C)(C)C(=O)Nc4cc(C)on4)c3)cc12 ?
Marked response: > 6.60

Exam item: Could you tell me which pEC50 is on file for CNC(=O)c1c(-c2ccc(F)cc2)oc2ccc(-c3cc(O)cc(C(=O)NCC(C)C)c3)cc12 ?
Marked response: 6.00 to 6.60

Exam item: Could you tell me which pEC50 is on file for CNC(=O)c1c(-c2ccc(F)cc2)oc2ccc(-c3ccc(-c4ccccc4CO)c(C(=O)NCC(C)C)c3)cc12 ?
Marked response: > 6.60

Exam item: Could you tell me which pEC50 is on file for CNC(=O)c1c(-c2ccc(F)cc2)oc2ccc(-c3cc(C(=O)NC4(c5noc(-c6ccccc6)n5)CC4)ccc3C)cc12 ?
Marked response: > 6.60

Exam item: Could you tell me which pEC50 is on file for CNC(=O)c1c(-c2ccc(F)cc2)oc2ccc(-c3cc(C(=O)NCC(C)C)ccc3OCc3c[nH]c(C)n3)cc12 ?
Marked response: > 6.60

Exam item: Could you tell me which pEC50 is on file for CNC(=O)c1c(-c2ccc(C)cc2)oc2ccc(-c3cc(C(=O)NC4(c5nc(COC)no5)CC4)ccc3C)cc12 ?
Marked response: > 6.60

Exam item: Could you tell me which pEC50 is on file for CNC(=O)c1c(-c2ccc(F)cc2)oc2ccc(-c3cccc(-c4ccn[nH]4)c3)cc12 ?
Marked response: 5.00 to 6.00
